# CONDITION SUMMARY: in ethylene glycol, 288.55 K
MEASURED PROPERTY: solubility (mole fraction)

{"columns": ["RECORD SMILES", "MEASURED PROPERTY", "MEASUREMENT"],
 "data": [
  ["NC(=O)N1c2ccccc2C=Cc2ccccc21", "solubility (mole fraction)", 0.00243]
]}

----------
# CONDITION SUMMARY: in cyclohexylamine, 287.25 K

{"columns": ["RECORD SMILES", "solubility (mole fraction)"],
 "data": [
  ["NC(=O)N1c2ccccc2C=Cc2ccccc21", 0.0149]
]}

----------
# CONDITION SUMMARY: in ethyl acetate, 314.05 K

{"columns": ["RECORD SMILES", "solubility (mole fraction)"],
 "data": [
  ["NC(=O)N1c2ccccc2C=Cc2ccccc21", 0.0068]
]}

----------
# CONDITION SUMMARY: in ethyl acetate, 306.55 K

{"columns": ["RECORD SMILES", "solubility (mole fraction)"],
 "data": [
  ["NC(=O)N1c2ccccc2C=Cc2ccccc21", 0.00548]
]}

----------
# CONDITION SUMMARY: in cyclohexylamine, 366.15 K

{"columns": ["RECORD SMILES", "solubility (mole fraction)"],
 "data": [
  ["NC(=O)N1c2ccccc2C=Cc2ccccc21", 0.0657]
]}

----------
# CONDITION SUMMARY: in cyclohexylamine, 317.65 K

{"columns": ["RECORD SMILES", "solubility (mole fraction)"],
 "data": [
  ["NC(=O)N1c2ccccc2C=Cc2ccccc21", 0.0259]
]}

----------
# CONDITION SUMMARY: in ethylene glycol, 316.85 K

{"columns": ["RECORD SMILES", "solubility (mole fraction)"],
 "data": [
  ["NC(=O)N1c2ccccc2C=Cc2ccccc21", 0.00861]
]}

----------
# CONDITION SUMMARY: in chloroform, 278.15 K

{"columns": ["RECORD SMILES", "solubility (mole fraction)"],
 "data": [
  ["NC(=O)N1c2ccccc2C=Cc2ccccc21", 0.0577]
]}

----------
# CONDITION SUMMARY: in chloroform, 297.55 K

{"columns": ["RECORD SMILES", "solubility (mole fraction)"],
 "data": [
  ["NC(=O)N1c2ccccc2C=Cc2ccccc21", 0.0679]
]}

----------
# CONDITION SUMMARY: in ethyl acetate, 281.35 K

{"columns": ["RECORD SMILES", "solubility (mole fraction)"],
 "data": [
  ["NC(=O)N1c2ccccc2C=Cc2ccccc21", 0.00272]
]}

----------
# CONDITION SUMMARY: in cyclohexylamine, 332.85 K
MEASURED PROPERTY: solubility (mole fraction)

{"columns": ["RECORD SMILES", "MEASURED PROPERTY", "MEASUREMENT"],
 "data": [
  ["NC(=O)N1c2ccccc2C=Cc2ccccc21", "solubility (mole fraction)", 0.0353]
]}

----------
# CONDITION SUMMARY: in chloroform, 318.95 K

{"columns": ["RECORD SMILES", "solubility (mole fraction)"],
 "data": [
  ["NC(=O)N1c2ccccc2C=Cc2ccccc21", 0.086]
]}

----------
# CONDITION SUMMARY: in ethylene glycol, 346.55 K

{"columns": ["RECORD SMILES", "solubility (mole fraction)"],
 "data": [
  ["NC(=O)N1c2ccccc2C=Cc2ccccc21", 0.0294]
]}
